Values from ChEMBL document CHEMBL3596164

- experimental target: Pancreatic triacylglycerol lipase (Sus scrofa) (UniProt P00591)
- Sequence (whole entry): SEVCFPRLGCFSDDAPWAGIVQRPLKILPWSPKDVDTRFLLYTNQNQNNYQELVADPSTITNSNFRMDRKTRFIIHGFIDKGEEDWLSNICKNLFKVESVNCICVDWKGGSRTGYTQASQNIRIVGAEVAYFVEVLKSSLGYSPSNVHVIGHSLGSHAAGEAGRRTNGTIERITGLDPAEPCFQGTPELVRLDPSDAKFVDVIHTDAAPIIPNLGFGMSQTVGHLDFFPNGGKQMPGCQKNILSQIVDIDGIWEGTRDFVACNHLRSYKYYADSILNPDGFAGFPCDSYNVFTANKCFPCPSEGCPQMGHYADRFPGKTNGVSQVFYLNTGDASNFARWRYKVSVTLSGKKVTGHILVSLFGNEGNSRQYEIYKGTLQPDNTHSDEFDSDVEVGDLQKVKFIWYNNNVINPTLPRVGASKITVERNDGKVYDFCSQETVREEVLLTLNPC
- experiment: Inhibition of pig pancreatic lipase after 10 mins by spectrophotometry relative to control
quantity name: ED50 (µM)
Numbers only, in µM.

Take a look at these entries with their results.
O=C(/C=C/c1ccc(O)c(O)c1)OCCc1ccccc1 :: 10
CCCCCCCCCCOC(=O)/C=C/c1cc(O)c(O)c(O)c1 :: 0.9

Consider the record given below.
(Q) I'm curious: which ED50 was measured for O=C(/C=C/c1ccc(O)c(O)c1)OCCCCCCc1ccccc1 tested on Pancreatic triacylglycerol lipase (Sus scrofa) (UniProt P00591)?
(A) 22
